Assay: Biodistribution, CHO-K1-GRPR + CHO-K1-PSMA dual xenograft mice
Conditions: female, NOD SCID, mouse, bone, intravenous, 1.08 nmol, total radioactivity, Biodistribution: Bone, Mouse #6; single tracer; dual xenograft; 25.2 h p.i.; 1.08 nmol

compound: CC(C)C[C@H](NC(=O)C[C@H](O)[C@H](CC(C)C)NC(=O)[C@H](Cc1c[nH]cn1)NC(=O)CNC(=O)[C@@H](NC(=O)[C@H](C)NC(=O)[C@H](Cc1c[nH]c2ccccc12)NC(=O)[C@H](CCC(N)=O)NC(=O)[C@@H](Cc1ccccc1)NC(=O)CN1CCC(NC(=O)CN2CCN(CC(=O)O)CCN(CC(=O)O)CCN(CC(=O)O)CC2)CC1)C(C)C)C(N)=O [[^111In]In-RM2, metal not drawn]
unit text: %ID/g
tissue uptake at 25.2 h: 0.06

* * *

Test: Biodistribution, CHO-K1-GRPR + CHO-K1-PSMA dual xenograft mice
Settings: female, NOD SCID, mouse, bone, intravenous, 0.58 nmol, total radioactivity, Biodistribution: Bone, Mouse #4; single tracer; dual xenograft; 24.2 h p.i.; 0.58 nmol
value type: tissue uptake at 24.2 h (%ID/g)

compound: CC(C)C[C@H](NC(=O)C[C@H](O)[C@H](CC(C)C)NC(=O)[C@H](Cc1c[nH]cn1)NC(=O)CNC(=O)[C@@H](NC(=O)[C@H](C)NC(=O)[C@H](Cc1c[nH]c2ccccc12)NC(=O)[C@H](CCC(N)=O)NC(=O)[C@@H](Cc1ccccc1)NC(=O)CN1CCC(NC(=O)CN2CCN(CC(=O)O)CCN(CC(=O)O)CCN(CC(=O)O)CC2)CC1)C(C)C)C(N)=O [[^111In]In-RM2, metal not drawn]
unit text: %ID/g
endpoint value: 0.04

* * *

Experiment: Biodistribution, CHO-K1-GRPR + CHO-K1-PSMA dual xenograft mice
Conditions: female, NOD SCID, mouse, kidney, intravenous, 1 nmol, total radioactivity, Biodistribution: Kidney, Mouse #8; dual tracer; dual xenograft; 25.8 h p.i.; 1.00 nmol

molecule: CC(C)C[C@H](NC(=O)C[C@H](O)[C@H](CC(C)C)NC(=O)[C@H](Cc1c[nH]cn1)NC(=O)CNC(=O)[C@@H](NC(=O)[C@H](C)NC(=O)[C@H](Cc1c[nH]c2ccccc12)NC(=O)[C@H](CCC(N)=O)NC(=O)[C@@H](Cc1ccccc1)NC(=O)CN1CCC(NC(=O)CN2CCN(CC(=O)O)CCN(CC(=O)O)CCN(CC(=O)O)CC2)CC1)C(C)C)C(N)=O [[^111In]In-RM2, metal not drawn]
tissue uptake at 25.8 h / %ID/g: 1.07

* * *

Assay: Biodistribution, CHO-K1-GRPR + CHO-K1-PSMA dual xenograft mice
Conditions: female, NOD SCID, mouse, pancreas, intravenous, 0.58 nmol, total radioactivity, Biodistribution: Pancreas, Mouse #4; single tracer; dual xenograft; 24.2 h p.i.; 0.58 nmol

molecule: CC(C)C[C@H](NC(=O)C[C@H](O)[C@H](CC(C)C)NC(=O)[C@H](Cc1c[nH]cn1)NC(=O)CNC(=O)[C@@H](NC(=O)[C@H](C)NC(=O)[C@H](Cc1c[nH]c2ccccc12)NC(=O)[C@H](CCC(N)=O)NC(=O)[C@@H](Cc1ccccc1)NC(=O)CN1CCC(NC(=O)CN2CCN(CC(=O)O)CCN(CC(=O)O)CCN(CC(=O)O)CC2)CC1)C(C)C)C(N)=O [[^111In]In-RM2, metal not drawn]
tissue uptake at 24.2 h: 0.07 %ID/g
